B1: glmS ribozyme (parent)
chain: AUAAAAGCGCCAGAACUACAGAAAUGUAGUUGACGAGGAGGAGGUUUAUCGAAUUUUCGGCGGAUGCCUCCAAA

Variants of: B1
PROTOCOL TEXT: KM; higher = weaker cofactor use; RNA array
STUDY CONDITIONS: with glucosamine-6-phosphate
Think of 3000 µM as a floor: if KM stands on it or above, it is Met; beneath it, Not met.

// query Does AUAAAAGCGCCAGAACUACAGAAAUGUAGGAGACGAGGAGGAGGUUUAUCGAAUUUUCGGCGGAUGCCUCCAAA [U30G U31A] have a reported KM of at least 3000 µM?
// result Not met

// query Does AUAAAAGCGCCAGAACUACAGAAAUGUAGUAGACGAGGAGGAGGUUUAUCGAAUUUUCAGCGGAUGCCUCCAAA [U31A G59A] have a reported KM of at least 3000 µM?
// result Not met

// query Does AUAAAAGCGCCAGAGCUACAGAAAUGUAGUUGACGAGGAGGAGGUUUAUCGAAUUUUCGGCGGAUGCUUCCAAA [A15G C68U] have a reported KM of at least 3000 µM?
// result Not met

// query Does AUAAAAGCGCCAGUACUACAGAAAUGUAGUUGACGAGGAGGAGGGUUAUCGAAUUUUCGGCGGAUGCUUCCAAA [A14U U45G C68U] have a reported KM of at least 3000 µM?
// result Not met

// query Does AUAAAAGCGCCAGAACUACAGAAAUGUAGUUGACGAGCAGGAGGUUUAUCGGAUUUUCGGCGGAUGCCUCCAAA [G38C A52G] have a reported KM of at least 3000 µM?
// result Not met

// query Does AUAAAAGCGCCAGAACUACAGAAAUGUAGUUGACGAGGAGGAGGUUUAUCGAAUUGUCAGCGGAUGCCUCCAAA [U56G G59A] have a reported KM of at least 3000 µM?
// result Not met

// query Does AUAAAAGCGCCAGAACUACAGAAAUGUAGUUGACGAGGAGGAGGUAUAUCGAAUUUUCGGCGGAUGCCUCUAAA [U46A C71U] have a reported KM of at least 3000 µM?
// result Not met

// query Does AUAAAAGCGCCAGAACUACAGAAAUGUAGUUGACGAGGAGGAGGUUGAUCGAAUUUUCGGCGGAUGCCUCGAAA [U47G C71G] have a reported KM of at least 3000 µM?
// result Not met

// query Does AUAAAAGCGCUAGAACUACAGAAAUGUAGUUGACGAGGAGGAGGUUUAUCGAAUGUUCGGCGGAUGCCUCCAAA [C11U U55G] have a reported KM of at least 3000 µM?
// result Not met

// query Does AUAAAAGCGCCAGAACUACAGAAAUGUAGUUGACGAGGAGGAGGUGUAUCGAAAUUUCGGCGGAUGCCUCCAAA [U46G U54A] have a reported KM of at least 3000 µM?
// result Not met

More entries:
// query Does AUAAAAGCGCCAGAACUACAGAAAUGUAGUCGACGAGGCGGAGGUUUAUCGAAUUUUCGGCGGAUGCCUCCAAA [U31C A39C] have a reported KM of at least 3000 µM?
// result Not met

// query Does AUAAAAGCGCCAGAACUACAGAAAUGUAGUUGACGAGGAGGAGGUUUAUCGAAUGUUCGACGGAUGCCUCCAAA [U55G G60A] have a reported KM of at least 3000 µM?
// result Not met

// query Does AUAAAAGCGCCAGAACUACAGAAAUGUAGUUGACGAGGGGGUGGUUUAUCGAAUUUUCGGCGGAUGCCUCCAAA [A39G A42U] have a reported KM of at least 3000 µM?
// result Not met

// query Does AUAAAAGCGCCAGAACUACAGAAAUGUAGUUGACGAGGAGGAGGUUAAUCGAAUUUUCGGCGGAUGCUUCCAAA [U47A C68U] have a reported KM of at least 3000 µM?
// result Met

// query Does AUAAAAGCGCCAGAACUACAGAAAUGUAGUUGACGAGGAGGAGGUCUAUCGAAUUUUCGGCGGAUGCGUCCAAA [U46C C68G] have a reported KM of at least 3000 µM?
// result Not met

// query Does AUAAAAGCGCCAGAACUACAGAAAUGUAGUUGACGAGGAGGCGGUUUAGCGAAUUUUCGGCGGAUGCCUCCAAA [A42C U49G] have a reported KM of at least 3000 µM?
// result Not met

// query Does AUAAAAGCGCCAGAACUACAGAAAUGUAGUUGACGAGGAGGAGGUUUAUUGAAUGUUCGGCGGAUGCCUCCAAA [C50U U55G] have a reported KM of at least 3000 µM?
// result Not met

// query Does AUAAAAGCGCAAGAACUACAGAAAUGUAGGUGACGAGGAGGAGGUUUAUCGAAUUUUCGGCGGAUGCCUCCAAA [C11A U30G] have a reported KM of at least 3000 µM?
// result Met

The origin of these recorded values is the supplement of paper PMC7125110.
